The reported numbers originate from the supplement of paper PMC4862054.

# Tested on: MDA-MB-231
# TEST_DETAILS: drug sensitivity score (DSS), CellTox Green (DSS (AUC-based score)); higher = stronger drug effect (viability inhibition or cytotoxicity); extreme values may be limits of the assay
# EXPERIMENTAL_CONDITIONS: incubation time: 72 h
Kindly state drug sensitivity score for each of the entries shown.
One number for each entry.

Would you please look over these solved cases?
O=C1c2c(O)ccc(O)c2C(=O)c2c(NCCNCCO)ccc(NCCNCCO)c21 | 0
CCC/C=C/C=C/C(=O)O[C@H]1/C(=C/C(=O)OC)C[C@H]2C[C@H]([C@@H](C)O)OC(=O)C[C@H](O)C[C@@H]3C[C@H](OC(C)=O)C(C)(C)[C@](O)(C[C@@H]4C/C(=C/C(=O)OC)C[C@H](/C=C/C(C)(C)[C@]1(O)O2)O4)O3 | 0

drug sensitivity score measured on Cc1cccc(-c2nn3c(c2-c2ccnc4ccc(C(N)=O)cc24)CCC3)n1 = 0

====

# Tested on: HCC1599
# TEST_DETAILS: drug sensitivity score (DSS), CellTiter-Blue viability (DSS (AUC-based score)); higher = stronger viability inhibition; extreme values may be limits of the assay
# EXPERIMENTAL_CONDITIONS: incubation time: 72 h
Decide using drug sensitivity score: a value greater than or equal to 7 is T, a smaller one is F.

Take a look at these entries with their results.
O=C1c2c(O)ccc(O)c2C(=O)c2c(NCCNCCO)ccc(NCCNCCO)c21 | F
CCC/C=C/C=C/C(=O)O[C@H]1/C(=C/C(=O)OC)C[C@H]2C[C@H]([C@@H](C)O)OC(=O)C[C@H](O)C[C@@H]3C[C@H](OC(C)=O)C(C)(C)[C@](O)(C[C@@H]4C/C(=C/C(=O)OC)C[C@H](/C=C/C(C)(C)[C@]1(O)O2)O4)O3 | T
COc1cc(CCc2cc(NC(=O)c3ccc(N4CC(C)NC(C)C4)cc3)n[nH]2)cc(OC)c1 (configuration not stated) | F
Cc1cccc(-c2nn3c(c2-c2ccnc4ccc(C(N)=O)cc24)CCC3)n1 | F
c1cc(CN2CCCNCCNCCCNCC2)ccc1CN1CCCNCCNCCCNCC1 | F

Please examine the following record next.
# bool: drug sensitivity score of CS(=O)(=O)N1CCN(Cc2cc3nc(-c4cccc5[nH]ncc45)nc(N4CCOCC4)c3s2)CC1 >= 7
T

====

# Tested on: MFM-223
# TEST_DETAILS: normalised response (% of control), CellTiter-Glo; higher = more viable cells (100 = DMSO, 0 = benzethonium chloride kill control)
# EXPERIMENTAL_CONDITIONS: incubation time: 72 h
Kindly state normalised response for each of the entries shown.
Answers are plain numbers, in %.

Nc1ccccc1NC(=O)c1ccc(CNc2nccc(-c3cccnc3)n2)cc1 [Mocetinostat] (1 nM) | 98.1
Cc1nc(Nc2ncc(C(=O)Nc3c(C)cccc3Cl)s2)cc(N2CCN(CCO)CC2)n1 [Dasatinib] (100 nM) | 88.5
COc1cc(CCc2cc(NC(=O)c3ccc(N4CC(C)NC(C)C4)cc3)n[nH]2)cc(OC)c1 (stereo not drawn) [AZD4547] (1 nM) | 91.9

# batch: return normalised response for each of the 2 molecules below
1. CCN(CC)CCNC(=O)c1c(C)[nH]c(/C=C2\C(=O)Nc3ccc(F)cc32)c1C [Sunitinib] (0.1 nM)
2. COc1cc(CCc2cc(NC(=O)c3ccc(N4CC(C)NC(C)C4)cc3)n[nH]2)cc(OC)c1 (stereo not drawn) [AZD4547] (0.1 nM)

103
93.2
